# Tested on: RPMI-8226 leukemia
# assay.info: NCI-60 one-dose screen, 48 h (100 = growth as untreated, 0 = no growth, -100 = all killed)
# test.conditions: 10 µM
# Protocol: Growth inhibition of the RPMI-8226 human tumor cell line is measured as a screen for anti-cancer activity. Cells are grown in 96 well plates and exposed to the test compound for 48 hours. Compounds are tested at a single concentration, which is 10^-5 M for most compounds. The reported endpoint is percent growth (GI% or GIPRCNT), where numbers from 0 - 100% represent growth inhibition, and numbers from -100% - 0 represent cell death. For example, a value of 40 represents 60% growth inhibition. […]
About 83,000 compounds went through this panel and 20% of them were active in at least one assay; those are over-represented in the sample as a whole.
Can you tell me growth for the items I'm about to list?
Give your result in % as a bare value.

Provide growth, tested on RPMI-8226 leukemia, for OC1CCCc2ccccc21 (centres undefined) .
104

Provide growth, tested on RPMI-8226 leukemia, for Nc1ccc(C(=O)c2ccc(N)c(Br)c2)cc1Br .
30.5

Provide growth, tested on RPMI-8226 leukemia, for COC(=O)c1cccnc1 .
106

Provide growth, tested on RPMI-8226 leukemia, for O=C(O)c1ccnc(Br)c1 .
115

Provide growth, tested on RPMI-8226 leukemia, for COC1=CC(=O)c2nc(Cl)ccc2C1=O .
3.41

Provide growth, tested on RPMI-8226 leukemia, for CCCCCCCCOC(=O)c1ccccn1 .
101

Provide growth, tested on RPMI-8226 leukemia, for C[N+](C)(C)C(=O)c1ccccc1 .
111

Provide growth, tested on RPMI-8226 leukemia, for CN(C)C(C)(C)CC(C)(C)C .
110

Provide growth, tested on RPMI-8226 leukemia, for O=S(=O)(O)c1ccc(O)c2ccccc12 .
94.5

----------
# Tested on: NCI-H226 lung
# assay.info: NCI-60 one-dose screen, 48 h
# test.conditions: 10 µM
# Description: Growth inhibition of the NCI-H226 human Non-Small Cell Lung tumor cell line is measured as a screen for anti-cancer activity. Cells are grown in 96 well plates and exposed to the test compound for 48 hours. Compounds are tested at a single concentration, which is 10^-5 M for most compounds. The reported endpoint is percent growth (GI% or GIPRCNT), where numbers from 0 - 100% represent growth inhibition, and numbers from -100% - 0 represent cell death. […]
The panel holds about 83,000 compounds, 20% with a hit somewhere; the sample as a whole holds those more often. Calls of active or inactive are those of the source. The calls were made as follows: active = growth percent below 10; inactive = the rest.
// classify into class 1 for active, class 0 for inactive

Field: outcome | Entry: O=[N+]([O-])c1cccc(C(F)(F)F)c1
class 0

Field: outcome | Entry: O=C(/C=C\c1ccc(O)cc1)c1ccccc1
class 0

Field: outcome | Entry: CC(C)=NNC(N)=S
class 0

Field: outcome | Entry: O=S(=O)(O)CC(O)CN1CCN(CCO)CC1 (configuration not stated)
class 0

Field: outcome | Entry: OCc1ccc(-c2ccc(-c3ccc(CO)s3)o2)s1
class 1

Field: outcome | Entry: O=S(=O)(O)c1ccc(Cl)c(Cl)c1
class 0

Field: outcome | Entry: C=C1CC/C=C(\C)C(=O)C[C@@H]2[C@@H]1CC2(C)C
class 0

----------
# Tested on: NCI-H322M lung
# assay.info: NCI-60 one-dose screen, 48 h (100 = growth as untreated, 0 = no growth, -100 = all killed)
# test.conditions: 10 µM
The panel holds about 83,000 compounds, 20% with a hit somewhere; the sample as a whole holds those more often.
Can you tell me growth for the items I'm about to list?
Give your result in % as a bare value.

Give the value of growth reported for the following: COC(=O)c1ccc(C(C)C)cc1
95.8

Give the value of growth reported for the following: Cc1ccccc1C1N=C2Oc3ccccc3C=C2C(=O)N1 (stereo not given)
37.4

Give the value of growth reported for the following: OC1CCCc2ccccc21 (stereo not given)
89.6

Give the value of growth reported for the following: CCCCCCCO
92.6

Give the value of growth reported for the following: O=C1OC(=O)C2C1C1(Cl)C(Cl)=C(Cl)C2(Cl)C2C(=O)OC(=O)C21 (stereo not given)
107

Give the value of growth reported for the following: N#CC1(Nc2ccc3c4c(cccc24)CC3)CCCCC1
85.1

Give the value of growth reported for the following: CCC(O)CC(CC)CO (stereo not given)
110

Give the value of growth reported for the following: Cc1ccc(C)n1-c1ccsc1C(=O)NNC(=O)CCl
99.7

Give the value of growth reported for the following: O=c1[nH]cc(Cl)cc1O
97.1

Give the value of growth reported for the following: NCC(=O)CCC(=O)O
107

Give the value of growth reported for the following: O=C(O)COCC(=O)O
97.6

Give the value of growth reported for the following: CCCCCCCCCCCCCC(=O)Oc1ccc[nH]c1=O
87

Give the value of growth reported for the following: CC1CCC2C(C)(C)C3CC12CC1OC13C (stereo not given)
117

Give the value of growth reported for the following: CCOC(=O)Nc1cc2c(c(N)n1)N=C(c1ccccc1)CO2
15.3

Give the value of growth reported for the following: C#CCSc1nnnn1-c1ccc(Br)c(C)c1
107

Give the value of growth reported for the following: COC(=O)c1cccnc1
106

Give the value of growth reported for the following: COc1ccc(OC)c(/C=C2\CCc3ccccc3C2=O)c1
70

Give the value of growth reported for the following: CC(=O)OCC1=CC2OC(=O)C3=COC(OC4OC(CO)C(O)C(O)C4O)C1C32 (stereo not given)
104

Give the value of growth reported for the following: O=C(O)c1ccc(S(=O)(=O)O)cc1
98.8

Give the value of growth reported for the following: C1CNC(C2=NCCN2)=N1
90.9

Give the value of growth reported for the following: O=C(Nc1ccccc1)OCCc1ccccc1
116

Give the value of growth reported for the following: Cc1nc2c(ccc3ccccc32)s1
116

Give the value of growth reported for the following: CCCCOC(OCCCC)c1ccccc1
104

Give the value of growth reported for the following: Cc1ccc(Cl)cc1NC(=O)N(C)CCO
116

Give the value of growth reported for the following: C=CC[N+](C)(C)C
108

----------
# Tested on: OVCAR-3 ovarian
# assay.info: NCI-60 one-dose screen, 48 h (100 = growth as untreated, 0 = no growth, -100 = all killed)
# test.conditions: 10 µM
About 83,000 compounds went through this panel and 20% of them were active in at least one assay; those are over-represented in the sample as a whole.
experimental.endpoint: growth (%)
Give your result in % as a bare value.

Give the value of growth reported for the following: COc1cc2cc(OC(C)=O)c3cc4c(cc3c2c(OC)c1OC)OCO4
101

Give the value of growth reported for the following: O=C1C=CC2=C3c4cc(O)c(O)cc4CC3(O)COC2=C1O (configuration not stated)
123

Give the value of growth reported for the following: CC1CCC2C(C)(C)C3CC12CC1OC13C (configuration not stated)
110

Give the value of growth reported for the following: CCOc1ccc(/C=C/C(=O)c2ccccc2)cc1
93.7

Give the value of growth reported for the following: CCCCCCCCOC(=O)c1ccccn1
110

Give the value of growth reported for the following: CCN(CC)C(=O)/C=C(/C)c1ccccc1
111

Give the value of growth reported for the following: COc1cc(C(=O)N/N=C/c2cccc([N+](=O)[O-])c2)cc(OC)c1OC
12.2

----------
# Tested on: NCI-H23 lung
# assay.info: NCI-60 one-dose screen, 48 h (100 = growth as untreated, 0 = no growth, -100 = all killed)
# test.conditions: 10 µM
The panel holds about 83,000 compounds, 20% with a hit somewhere; the sample as a whole holds those more often.
Can you tell me growth for the items I'm about to list?
Give your result in % as a bare value.

Provide growth, tested on NCI-H23 lung, for COc1ccccc1N1CCN(C(=S)Nc2ccccc2)CC1 .
92.8

Provide growth, tested on NCI-H23 lung, for COc1cc2c3c(n(C)c(=O)c2cc1OC)-c1cc2c(cc1C3=O)OCO2 .
71.9

Provide growth, tested on NCI-H23 lung, for O=C(c1ccccc1)C1CCC1 .
102

Provide growth, tested on NCI-H23 lung, for O/N=C/c1ccc(O)cc1O .
105

Provide growth, tested on NCI-H23 lung, for CC(=O)OCCC(C)CCC=C(C)C (stereo not drawn) .
105

Provide growth, tested on NCI-H23 lung, for C[N+](C)(C)C(=O)c1ccccc1 .
99.5

Provide growth, tested on NCI-H23 lung, for COC(=O)c1ccc(NC(=O)CCl)cc1 .
85.3

Provide growth, tested on NCI-H23 lung, for CCCCCC(C)(CC(=O)O)CC(=O)O .
115

Provide growth, tested on NCI-H23 lung, for COc1cc2c(cc1O)CC[C@@H]1C2CC[C@@]2(C)C1CC[C@@H]2O (stereo partly drawn) .
406

Provide growth, tested on NCI-H23 lung, for CSC(=N\N=C\c1ccc(N(C)C)cc1)/N=C/N(C)C .
112

Provide growth, tested on NCI-H23 lung, for CC(=O)Nc1c(C)cc(C)cc1C .
101

Provide growth, tested on NCI-H23 lung, for NC(C(=O)O)C(O)c1ccco1 (stereo not drawn) .
108

Provide growth, tested on NCI-H23 lung, for COCCCNC(=O)c1nnn2c1nc(N)c1cc(Cl)ccc12 .
98.4

Provide growth, tested on NCI-H23 lung, for O=S(=O)(O)c1ccc(O)c2ccccc12 .
93.4

Provide growth, tested on NCI-H23 lung, for CCCNC(=O)c1ccc(S(N)(=O)=O)cc1 .
118

Provide growth, tested on NCI-H23 lung, for O=C(OCC(O)C1OC(c2ccccc2)OC(COC(=O)c2ccccc2)C1O)c1ccccc1 (stereo not drawn) .
111

Provide growth, tested on NCI-H23 lung, for Cc1ccc(C(=O)c2ccccc2)c(C)c1 .
99.6

Provide growth, tested on NCI-H23 lung, for O=C(Cc1ccc(OCc2ccccc2)cc1)NCc1ccc2c(c1)OCO2 .
78.3
